biological target: CDK1/cycA1 (Homo sapiens); construct: purchased ProQinase GmbH; assay: In vitro kinase assay (PKLight luciferase ATP readout), CDK1; type: biochemical; settings: ATP at Km; read-out: In vitro Kinase Inhibition CDK1 IC50
pIC50: −log10 of the molar value. Counter-ions that a name gives are not always drawn.
quantity name: pIC50

A: CC(C)c1cnn2c(NCc3ccncc3)cc(NCC3(O)CCNCC3)nc12 [PPDA-010, hydrochloride]
B: CC(C)c1cnn2c(NC3CCN(S(=O)(=O)c4ccc(F)cc4)CC3)cc(NC[C@H]3CCNC[C@@H]3O)nc12
C: CC(C)c1cnn2c(NCC3CCCCC3)cc(N[C@H]3CNC[C@H]3O)nc12
q: Ascending by pIC50, please: list the compounds accordingly. Answer format: the labels, ordered as requested.
a: A, C, B
(A: 5.44, C: 5.84, B: 6.39)

====

target: CDK1/cycA1 (Homo sapiens, UniProt P06493); construct: purchased ProQinase GmbH; assay: In vitro kinase assay (PKLight luciferase ATP readout), CDK1; format: biochemical; conditions: ATP at Km; read-out: In vitro Kinase Inhibition CDK1 IC50
Sequence (P06493 whole entry): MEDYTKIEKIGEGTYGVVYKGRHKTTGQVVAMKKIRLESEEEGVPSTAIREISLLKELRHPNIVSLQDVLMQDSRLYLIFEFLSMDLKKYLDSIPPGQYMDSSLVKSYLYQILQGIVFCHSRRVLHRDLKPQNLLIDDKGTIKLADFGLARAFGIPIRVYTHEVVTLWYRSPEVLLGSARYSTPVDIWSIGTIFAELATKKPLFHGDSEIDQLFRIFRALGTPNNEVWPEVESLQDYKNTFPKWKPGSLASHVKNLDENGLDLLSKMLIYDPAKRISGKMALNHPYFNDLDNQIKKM
Sequence (P78396 whole entry partner): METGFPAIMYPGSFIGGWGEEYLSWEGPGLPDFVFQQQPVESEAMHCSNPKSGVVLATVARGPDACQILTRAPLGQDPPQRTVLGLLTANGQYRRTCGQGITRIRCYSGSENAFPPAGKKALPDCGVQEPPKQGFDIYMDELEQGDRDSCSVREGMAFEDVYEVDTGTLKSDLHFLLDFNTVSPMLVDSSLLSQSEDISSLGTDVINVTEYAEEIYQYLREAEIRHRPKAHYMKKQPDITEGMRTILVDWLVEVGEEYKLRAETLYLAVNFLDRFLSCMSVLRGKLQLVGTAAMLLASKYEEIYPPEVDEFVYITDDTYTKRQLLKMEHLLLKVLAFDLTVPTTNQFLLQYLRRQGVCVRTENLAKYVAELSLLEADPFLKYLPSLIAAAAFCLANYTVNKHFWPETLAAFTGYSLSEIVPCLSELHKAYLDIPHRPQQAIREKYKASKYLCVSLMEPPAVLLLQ
pIC50: −log10 of the molar value. Structures can show the parent of a compound that is named as a salt.
quantity name: pIC50

> print(dat)
                                   compound                       experimental.system  quantity.name  recorded.value
1  CC(C)c1cnn2c(NCc3ccc(C(F)(F)F)cc3)cc(N[C@H]3CNC[C@H]3O)nc12  CDK1/cycA1 (Homo sapiens, UniProt P06493)          pIC50            5.87
2  CC(C)c1cnn2c(NC(=O)C3CCNCC3)cc(NC[C@H]3CCNC[C@@H]3O)nc12 [PPDA-009, hydrochloride]  CDK1/cycA1 (Homo sapiens, UniProt P06493)          pIC50            6.25
3  CC(C)c1cnn2c(NCc3ccncc3)cc(NC[C@H]3CCNC[C@@H]3O)nc12 [PPDA-003, hydrochloride]  CDK1/cycA1 (Homo sapiens, UniProt P06493)          pIC50            5.72
4  COC[C@H]1C[C@@H](Nc2cc(NCc3ccccc3)n3ncc(C(C)C)c3n2)CN1  CDK1/cycA1 (Homo sapiens, UniProt P06493)          pIC50            6.60
5  CC(C)c1cnn2c(NCc3ccccc3)cc(N[C@@H]3CN[C@H](CO)C3)nc12 [PPDA-026, hydrochloride]  CDK1/cycA1 (Homo sapiens, UniProt P06493)          pIC50            6.79

1: CC(C)c1cnn2c(NCc3ccccc3)cc(N[C@@H]3CNCC[C@H]3O)nc12
2: CC(C)c1cnn2c(NCC3CCCCC3)cc(NC[C@@]3(CO)CCNC3)nc12 (racemic)
q: Lowest pIC50? choose 1 or 2 When you have decided, please share the label of that item.
a: 1
(1: 5.72, 2: 7.10)

====

Target: CDK7/CycH/MAT1 (Homo sapiens, UniProt P50613)
Construct: purchased ProQinase GmbH
Sequence (P50613 whole entry): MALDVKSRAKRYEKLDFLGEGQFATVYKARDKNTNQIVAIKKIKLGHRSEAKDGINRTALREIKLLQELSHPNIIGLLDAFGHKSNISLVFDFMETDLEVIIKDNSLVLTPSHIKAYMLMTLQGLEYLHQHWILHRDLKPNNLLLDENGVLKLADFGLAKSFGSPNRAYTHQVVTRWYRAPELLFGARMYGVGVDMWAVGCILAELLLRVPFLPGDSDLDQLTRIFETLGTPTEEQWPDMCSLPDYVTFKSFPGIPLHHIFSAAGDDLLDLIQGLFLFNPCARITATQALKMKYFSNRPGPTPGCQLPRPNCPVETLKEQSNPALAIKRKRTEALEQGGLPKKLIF
Sequence (P51946 whole entry partner): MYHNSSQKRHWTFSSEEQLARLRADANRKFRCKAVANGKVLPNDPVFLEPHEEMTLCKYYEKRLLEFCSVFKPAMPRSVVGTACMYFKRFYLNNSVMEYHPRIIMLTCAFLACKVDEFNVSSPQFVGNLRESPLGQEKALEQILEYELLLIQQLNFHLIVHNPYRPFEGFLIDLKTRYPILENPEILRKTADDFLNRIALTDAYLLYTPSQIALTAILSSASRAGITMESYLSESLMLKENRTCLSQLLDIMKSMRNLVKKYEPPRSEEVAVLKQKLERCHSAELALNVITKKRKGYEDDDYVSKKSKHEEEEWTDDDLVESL
Sequence (P51948 whole entry partner): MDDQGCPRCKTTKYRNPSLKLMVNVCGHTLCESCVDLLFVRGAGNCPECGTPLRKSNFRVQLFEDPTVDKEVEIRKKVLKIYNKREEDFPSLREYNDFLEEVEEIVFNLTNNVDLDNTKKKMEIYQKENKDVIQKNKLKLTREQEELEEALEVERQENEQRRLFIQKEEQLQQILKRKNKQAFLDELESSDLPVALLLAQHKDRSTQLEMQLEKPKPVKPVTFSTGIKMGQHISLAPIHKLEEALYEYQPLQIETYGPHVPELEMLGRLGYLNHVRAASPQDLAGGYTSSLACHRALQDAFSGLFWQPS
Assay: In vitro kinase assay (PKLight luciferase ATP readout), CDK7
Format: biochemical
Conditions: ratio of CDK2 IC50 to CDK7 IC50
Experimental: Purified recombinant CDK1/cycA1, CDK2/cycA1, CDK4/cycD1, CDK5/p35NCK, CDK6/cycD1, CDK7/CycH/MAT1, and CDK9/CycT1 were purchased from ProQinase GmbH. Kinase assays were performed according to manufacturer's protocols. Rb-CTF (ProQinase GmbH) (cat number: 0040-0000-6) was used as the kinase substrate for CDK1, CDK2, CDK4, and CDK6 kinases. […]
Structures can show the parent of a compound that is named as a salt.
quantity name: Selectivity CDK2/CDK7 (fold)

Worked examples follow.
> print(dat)
                                   molecule  recorded.value
1  COC[C@H]1C[C@@H](Nc2cc(NCc3ccccc3)n3ncc(C(C)C)c3n2)CN1 [PPDA-027]              38
2  CC(C)c1cnn2c(NCc3ccccc3)cc(N[C@H]3CNCC3O)nc12 (stereo in doubt) [PPDA-015, hydrochloride]              48
3  CC(C)c1cnn2c(NCc3ccncc3)cc(NC[C@@]3(CO)CCNC3)nc12 (racemic) [PPDA-020]             0.5

A: CC(C)c1cnn2c(NCC3CCCCC3)cc(NC[C@H]3CCNC[C@@H]3O)nc12 [PPDA-004]
B: CC(C)c1cnn2c(NCC3CCCCC3)cc(NC[C@@]3(CO)CCNC3)nc12 (racemic) [PPDA-019]
C: CC(C)c1cnn2c(NCc3ccccc3)cc(NC[C@@H]3C[C@@H](O)CN3)nc12 [PPDA-030]
D: CC(C)c1cnn2c(NCc3ccccc3)cc(N[C@@H]3CNCC[C@H]3O)nc12 [PPDA-022]
E: CC(C)c1cnn2c(NC3CCN(S(=O)(=O)c4ccc(F)cc4)CC3)cc(NC[C@H]3CCNC[C@@H]3O)nc12 [PPDA-006]
q: Thanks in advance: please rank these 5 entries by Selectivity CDK2/CDK7, highest to lowest. Please reply with the labels ordered as requested. Many thanks.
a: C, D, E, A, B
(C: 17 fold, D: 7.8 fold, E: 4.5 fold, A: 1.4 fold, B: 0.3 fold)

====

molecular target: CDK7/CycH/MAT1 (Homo sapiens, UniProt P50613); test: In vitro kinase assay (PKLight luciferase ATP readout), CDK7; conditions: ATP at Km; read-out: In vitro Kinase Inhibition CDK7 IC50
pIC50: −log10 of the molar value. Structures can show the parent of a compound that is named as a salt.
quantity name: pIC50

P: CC(C)c1cnn2c(NCc3ccccc3)cc(N[C@H]3CN[C@@H](CO)C3)nc12 [PPDA-028]
Q: CC(C)c1cnn2c(NCc3ccccc3)cc(N[C@H]3CNCC[C@@]3(O)CO)nc12 [PPDA-024]
q: Among P and Q , which shows a numerically higher pIC50 result? Answer with the label corresponding to your selection.
a: P
(P: 7.37, Q: 6.82)

P: CC(C)c1cnn2c(NCc3ccccc3)cc(NCC3(CO)CCNC3)nc12 (racemic) [PPDA-018, hydrochloride]
Q: CC(C)c1cnn2c(NCc3ccc(C(F)(F)F)cc3)cc(N[C@H]3CNC[C@H]3O)nc12 [PPDA-017]
q: // max by pIC50 over [ P , Q ] // caller expects the label of the chosen entry
a: P
(P: 7.85, Q: 5.72)

a: CC(C)c1cnn2c(NCC3CCCCC3)cc(NCC3(O)CCNCC3)nc12 [PPDA-013]
b: CO[C@H]1CN[C@H](CNc2cc(NCc3ccccc3)n3ncc(C(C)C)c3n2)C1 [PPDA-029]
c: COC[C@H]1C[C@@H](Nc2cc(NCc3ccccc3)n3ncc(C(C)C)c3n2)CN1 [PPDA-027]
q: Exam item: list the entries in increasing order of pIC50. # the answer lists labels in the order requested
a: b, a, c
(b: 6.00, a: 7.10, c: 7.74)

====

biological target: CDK7/CycH/MAT1 (Homo sapiens, UniProt P50613); construct: purchased ProQinase GmbH; assay: In vitro kinase assay (PKLight luciferase ATP readout), CDK7; assay type: biochemical; settings: ratio of CDK2 IC50 to CDK7 IC50
Counter-ions that a name gives are not always drawn.
quantity name: Selectivity CDK2/CDK7 (fold)

> print(dat)
                                   compound  unit.of.measure  recorded.value
1  CC(C)c1cnn2c(NCc3ccncc3)cc(NCC3(O)CCNCC3)nc12 [PPDA-010, hydrochloride]             fold             0.1

1: CC(C)c1cnn2c(NCc3ccc(C(F)(F)F)cc3)cc(N[C@H]3CNC[C@H]3O)nc12 [PPDA-017]
2: CC(C)c1cnn2c(NCc3ccccc3Br)cc(NCC3(O)CCNCC3)nc12 [PPDA-012]
q: Endpoint returns whichever of 1 and 2 has the numerically higher Selectivity CDK2/CDK7. Write down the label attached to your selection.
a: 1

====

target: CDK1/cycA1 (Homo sapiens, UniProt P06493); construct: purchased ProQinase GmbH; assay: In vitro kinase assay (PKLight luciferase ATP readout), CDK1; type: biochemical; settings: ATP at Km; read-out: In vitro Kinase Inhibition CDK1 IC50
quantity name: IC50 (nM)

> print(dat)
                                   compound  quantity.name  recorded.value
1  CC(C)c1cnn2c(Nc3ccc(S(=O)(=O)N(C)C)cc3)cc(NC[C@H]3CCNC[C@@H]3O)nc12           IC50             213

P: CC(C)c1cnn2c(NCc3ccccc3Br)cc(NCC3(O)CCNCC3)nc12
Q: CC(C)c1cnn2c(NCC3CCCCC3)cc(NC[C@]3(O)CCNC[C@H]3O)nc12 (racemic)
q: I'd appreciate it if you could identify which of P and Q has the greater IC50. Please reply using the label of the selected record.
a: Q
(Q: 8680 nM, P: 74 nM)

I: CC(C)c1cnn2c(NCC3CCCCC3)cc(NCC3(O)CCNCC3)nc12
II: CC(C)c1cnn2c(NCc3ccccc3)cc(N[C@H]3CN[C@@H](CO)C3)nc12
q: # min-compare on IC50 between I and II Give the label of your selection.
a: I
